B1: CPEB3 Ribozyme (parent)
chain: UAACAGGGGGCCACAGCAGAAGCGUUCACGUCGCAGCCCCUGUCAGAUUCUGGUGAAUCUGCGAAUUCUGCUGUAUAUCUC

# Variants of: B1
# assay info: self-cleavage, relative activity (ratio to wild type); higher = more cleavage; in vitro, sequencing
Would you mind telling me the reported self-cleavage of each entry?
Give bare numbers.

Example entries and their recorded answers appear below.
variant_annotation="U49C C81G" outcome_measure=self-cleavage observed=0.51
variant_annotation="U41A U43A" outcome_measure=self-cleavage observed=0.24
variant_annotation="C37U A56G" outcome_measure=self-cleavage observed=0.45
variant_annotation="C11G A18G" outcome_measure=self-cleavage observed=0.54
variant_annotation=G73U outcome_measure=self-cleavage observed=1.28
variant_annotation="A15C U80A" outcome_measure=self-cleavage observed=1.22
variant_annotation="U54C G63U" outcome_measure=self-cleavage observed=1.13
variant_annotation="C44U U80C" outcome_measure=self-cleavage observed=0.29

Provide reported self-cleavage for each item, in the same order as listed.
1. C29U U48C
2. C17U U58C
3. U48A U67C
4. A45U U49C
5. U48G
6. A13C A57G

1: 0.25; 2: 0.17; 3: 0.25; 4: 0.25; 5: 0.5; 6: 1.04
